What IC50 was measured for each of the following?
Test system: herpes simplex virus
Experiment: inhibition of herpes simplex virus multiplication in tissue culture (plaque formation technic of Rapp)
Type: cell-based
Conditions: read-out: Concentration required to exert 50% inhibition of herpes-induced plaque formation
Quick note: unit goes after the number.

Query: Param readout = IC50; param system = herpes simplex virus; param query = CC(CN(C)C)O[C@H]1O[C@H](CO)[C@@H](O)[C@H](O)[C@H]1O (stereo partly drawn) [α-N,N-dimethylaminoisopropyl glucoside, α-N,N-dimethylaminoisopropyl-D-glucoside] ; response: value
Result: 10 µg/mL

Query: Param readout = IC50; param system = herpes simplex virus; param query = CCN(CC)CCOC1C(C2COC(C)(C)O2)OC2OC(C)(C)OC21 (centres unmarked) ; response: value
Result: 6 µg/mL

Query: Param readout = IC50; param system = herpes simplex virus; param query = CC(CO[C@H]1[C@H](O)[C@@H](CO)OC(O)[C@@H]1O)CN(C)C (some centres unmarked) ; response: value
Result: 2 µg/mL

Query: Param readout = IC50; param system = herpes simplex virus; param query = CN(C)CCCO[C@H]1[C@H](O)[C@@H](CO)OC(O)[C@@H]1O (some centres unmarked) ; response: value
Result: 0.3 µg/mL

Query: Param readout = IC50; param system = herpes simplex virus; param query = CN1CCC(O[C@H]2[C@H](O)[C@@H](CO)OC(O)[C@@H]2O)CC1 (some centres unmarked) ; response: value
Result: 0.7 µg/mL

Query: Param readout = IC50; param system = herpes simplex virus; param query = CCN(CC)CCO[C@H]1[C@H](O)[C@@H](CO)OC(O)[C@@H]1O (some centres unmarked) ; response: value
Result: 2 µg/mL

Query: Param readout = IC50; param system = herpes simplex virus; param query = NCCCO[C@H]1[C@H](O)[C@@H](CO)OC(O)[C@@H]1O (some centres unmarked) ; response: value
Result: 3 µg/mL

Query: Param readout = IC50; param system = herpes simplex virus; param query = CN(C)CCCOC[C@H]1OC(O)[C@H](O)[C@@H](O)[C@H]1O (some centres unmarked) ; response: value
Result: 2 µg/mL
